The reader will find reported IC50 values listed item by item below.
# tested_on: KRas Q61H mutant (Homo sapiens (Human), UniProt P01116, Q61H)
# Sequence (P01116 other isoform, or with tags, fused parts or gaps Q61H): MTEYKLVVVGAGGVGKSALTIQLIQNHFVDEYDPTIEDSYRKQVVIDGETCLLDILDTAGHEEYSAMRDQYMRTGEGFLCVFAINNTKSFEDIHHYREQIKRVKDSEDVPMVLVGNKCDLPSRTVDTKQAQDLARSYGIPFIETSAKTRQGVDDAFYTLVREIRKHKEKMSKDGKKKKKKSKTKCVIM
# protocol_notes: Ras GTP Binding Domain Inhibition Assay, KRas Q61H mutant
# experimental_context: + SOS

Worked cases, answers included:
INSERT INTO measurements (molecule, tested_on, value_reported) VALUES
  ('COCCn1ccnc1-c1nc(N[C@H]2C[C@@H](OC)C2)c2c(-c3ccccc3)c(-c3ccn(C)n3)sc2n1', 'KRas Q61H mutant (Homo sapiens (Human), UniProt P01116, Q61H)', '1 to 4.99 µM'),
  ('CO[C@@H]1CC[C@H](Nc2nc(-c3nccn3C)nc3sc(-c4ccn(C(C)C)n4)c(-c4ccccc4)c23)C1 (single isomer, unassigned)', 'KRas Q61H mutant (Homo sapiens (Human), UniProt P01116, Q61H)', '1 to 4.99 µM');

Now examine the next entry.
Would you kindly share the measured IC50 for CO[C@H]1CC[C@@H](Nc2nc(-c3nccn3C)nc3sc(-c4ccn(C(C)C)n4)c(C)c23)C1 (racemic) ?
5 to 10 µM
